Molecular target: cGAS (Homo sapiens, UniProt Q8N884)
Sequence (Q8N884 whole entry): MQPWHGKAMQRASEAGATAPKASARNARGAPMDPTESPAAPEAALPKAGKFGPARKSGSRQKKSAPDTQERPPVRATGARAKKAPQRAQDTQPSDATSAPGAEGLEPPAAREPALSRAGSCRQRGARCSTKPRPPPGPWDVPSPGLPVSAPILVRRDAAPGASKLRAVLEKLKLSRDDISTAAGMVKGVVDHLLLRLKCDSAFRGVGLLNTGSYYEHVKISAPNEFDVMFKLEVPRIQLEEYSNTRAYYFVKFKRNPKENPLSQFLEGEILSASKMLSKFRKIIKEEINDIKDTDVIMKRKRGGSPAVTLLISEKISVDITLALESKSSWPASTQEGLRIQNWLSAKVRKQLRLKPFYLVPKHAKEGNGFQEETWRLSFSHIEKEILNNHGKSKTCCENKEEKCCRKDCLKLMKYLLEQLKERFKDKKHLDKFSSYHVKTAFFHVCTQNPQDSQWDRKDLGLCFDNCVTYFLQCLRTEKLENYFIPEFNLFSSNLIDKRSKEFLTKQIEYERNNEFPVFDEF
Assay: In vitro inhibition assay of cGAS activity (cGAMP production, RapidFire mass spectrometry)
Format: biochemical
Set-up: Insert cDNA encoding full-length of human cGAS; His6; made in house; host or cells: E. coli BL21(DE3)
Details: 10 nM recombinant human cGAS, 60 nM 75-bp dsDNA, 50 μM ATP, 50 μM GTP, 3 hrs
// boundary case: IC50 equal to 30 nM maps to label 0; strictly smaller maps to label 1

In: Is IC50 strictly under 30 nM for the entry Cn1c2c(c3c(CC#N)cc(Cl)c(Cl)c31)CC(=O)NCC2CCO (stereo not shown) [Example 121] ?
Out: label 1

In: Problem: For the compound Nc1cncc(-c2cc(Cl)c(Cl)c3[nH]c4c(c23)CC(=O)NCC4)n1 [Example 34] , is IC50 under 30 nM?
Out: label 0

In: Hi there! Is IC50 for CCNc1cc(Cl)c(Cl)c2[nH]c3c(c12)CC(=O)NCC3 [Example 30] below 30 nM, do you know?
Out: label 0

In: Bench note: check whether C[C@H]1C(=O)NCC(C)(C)c2c1c1c(NC(=O)CO)cc(Cl)c(Cl)c1n2C (single isomer, unassigned) [Example 134] shows IC50 below 30 nM
Out: label 1

In: # strict comparison: is reported IC50 < 30 nM? input = CC1C(=O)NCCc2[nH]c3c(Cl)c(Cl)cc(OCC(F)F)c3c21 (racemic) [Example 76]
Out: label 0

In: Report whether reported IC50 is lower than 30 nM (strictly) for C[C@@H](O)CNc1cc(Cl)c(Cl)c2c1c1c(n2C)CCNC(=O)[C@@H]1C (single isomer, unassigned) [Example 99]
Out: label 0

----------
Biological target: UniProtKB Q8N884
Assay: In vitro inhibition assay of cGAS activity (cGAMP production, RapidFire mass spectrometry)
Format: biochemical
Design: Insert cDNA encoding full-length of human cGAS; His6; made in house; host or cells: E. coli BL21(DE3)
Conditions: 10 nM recombinant human cGAS, 60 nM 75-bp dsDNA, 50 μM ATP, 50 μM GTP, 3 hrs
Provide the recorded pIC50 for the entries that follow.
// field semantics: pIC50 = negative decimal log of concentration (mol/L)

Here C[C@@H]1CNC(=O)[C@@H](C)c2c1[nH]c1c(Cl)c(Cl)cc(NC(=O)CO)c21 (single isomer, unassigned) [Example 161] was tested on UniProtKB Q8N884, and its pIC50 came to 5.43

pIC50 on UniProtKB Q8N884 for CC1C(=O)NCCc2[nH]c3c(Cl)c(Cl)cc(NC4COC4)c3c21 (racemic) [Example 60] is 7.27

Reported pIC50 (UniProtKB Q8N884) for entry C[C@H](O)C(=O)Nc1cc(Cl)c(Cl)c2c1c1c(n2C)CCNC(=O)[C@H]1C (single isomer, unassigned) [Example 95] is 5.12

UniProtKB Q8N884 data for C[C@@H]1C(=O)NCCc2[nH]c3c(Cl)c(Cl)cc(OCC(N)=O)c3c21 (single isomer, unassigned) [Example 17B] ; its pIC50: 5.81

Hey, UniProtKB Q8N884 data for CC1C(=O)NCCc2c1c1c(NCc3cnc[nH]3)cc(Cl)c(Cl)c1n2C (centres unmarked) [Example 91] : pIC50 came out at 7.68

UniProtKB Q8N884 pIC50 of COCCC1CNC(=O)Cc2c1[nH]c1c(Cl)c(Cl)cc(-c3cnn(C)n3)c21 (racemic) [Example 166] is 7.68

The compound C[C@H](O)C(=O)Nc1cc(Cl)c(Cl)c2c1c1c(n2C)CCNC(=O)[C@H]1C (single isomer, unassigned) [Example 94] , tested on UniProtKB Q8N884, showed pIC50 of 7.61

For the compound COCCOc1cc(Cl)c(Cl)c2[nH]c3c(c12)[C@H](C)C(=O)NCC3 (single isomer, unassigned) [Example 80] , the measured pIC50 on UniProtKB Q8N884 was 8.09

Per the reported UniProtKB Q8N884 data, C[C@@H]1CNC(=O)[C@H](C)c2c1[nH]c1c(Cl)c(Cl)cc(NCCO)c21 (single isomer, unassigned) [Example 155] has pIC50 of 7.75

Measured on UniProtKB Q8N884, C[C@@H]1C(=O)NCCc2[nH]c3c(Cl)c(Cl)cc(OCC(N)=O)c3c21 (single isomer, unassigned) [Example 17A] has a documented pIC50 of 7.65

// assay UniProtKB Q8N884, entry C[C@H](O)C(=O)Nc1cc(Cl)c(Cl)c2c1c1c(n2C(F)F)CCNC(=O)[C@H]1C (single isomer, unassigned) [Example 143] , pIC50 value = 5.82

With UniProtKB Q8N884 as the test system, Cn1ncc(-c2cc(Cl)c(Cl)c3[nH]c4c(c23)CC(=O)NC[C@H]4CCO)n1 (single isomer, unassigned) [Example 8B] showed pIC50 of 6.67

Field pIC50 (system: UniProtKB Q8N884) for entry CCCNc1cc(Cl)c(Cl)c2[nH]c3c(c12)C(C)C(=O)NCC3 (centres unmarked) [Example 45] = 7.33

So the reported pIC50 for Cc1noc(-c2cc(Cl)c(Cl)c3[nH]c4c(c23)CC(=O)NCC4)n1 [Example 25] , on UniProtKB Q8N884, turned out to be 7.57

Reference source: patent US20240246979A1
